FYI, the data here is from PubChem BioAssay (NCI).

- Tested on: SW-620 colon
- assay notes: NCI-60 one-dose screen, 48 h
- measurement conditions: 10 µM unless noted
About 83,000 compounds went through this panel and 20% of them were active in at least one assay; those are over-represented in the sample as a whole. Activity calls are given as the source filed them. How the source made its calls: active means growth percent below 10; inactive means the rest.
Valid outcomes are listed here; reply with one: YES (active), NO (inactive)

Please review the entries below; each comes with its answer.
C=C(C)[C@@H]1CC[C@]2(N=C=O)CC[C@]3(C)[C@H](CC[C@@H]4[C@@]5(C)Cc6c([nH]c7ccccc67)C(C)(C)[C@@H]5CC[C@]43C)[C@@H]12 = NO
COc1ccc2sc3c(NCCO)nc4ccccc4c3c(=O)c2c1 = NO
Cc1nc(/N=C(\N)NC(=O)Nc2cccc(Cl)c2)sc1C = NO
COc1cc(CCCO)c(OC)c(OC)c1OC = NO
O=C(S)CNC(=O)c1ccccc1 = NO
Cc1ccc(S(=O)(=O)N/N=C/C2(c3ccccc3)CC2)cc1 = NO
COc1ccc(C2CC(c3ccc(Nc4nc(Nc5ccc(F)cc5)nc(Nc5ccc(Cl)cc5)n4)cc3)=NN2C(C)=O)cc1 (stereo unspecified) = NO
C=CCc1cc(C)ccc1NC(C(=O)NCC(=O)OC)c1ccccc1 (stereo unspecified) = NO
COc1cccc(-c2nc(-c3ccc(NC(=O)OC(C)C)cc3)[nH]c2-c2ccnc(Br)c2)c1 = NO
CCC(C)(c1cc(C(C)(C)C)c(O)c(C(C)(C)C)c1)c1cc(C(C)(C)C)c(O)c(C(C)(C)C)c1 = NO

Incoming: Write down the call the test reported for this compound. Item: CCCCC1CCCC12NC(=O)NC2=O (stereo unspecified)
Outgoing: NO

Incoming: Write down the call the test reported for this compound. Item: `Cc1nc2ccccc2c(/C=C/c2ccc(Cl)cc2)c1C(=O)/C=C/c1cccs1`
Outgoing: NO

Incoming: Write down the call the test reported for this compound. Item: C=C1C(=O)O[C@H]2[C@H]1CC/C(COC(=O)C(C)c1ccc(CC(C)C)cc1)=C\CC[C@@]1(C)O[C@@H]21 (stereo partly specified)
Outgoing: YES

* * *

- Tested on: SNB-19 CNS
- assay notes: NCI-60 one-dose screen, 48 h (100 = growth as untreated, 0 = no growth, -100 = all killed)
- measurement conditions: 10 µM unless noted
About 83,000 compounds went through this panel and 20% of them were active in at least one assay; those are over-represented in the sample as a whole. Active and inactive are the calls of the source. The calls were made as follows: active = growth percent below 10; inactive = the rest.
Measured growth values are reported for all entries that follow.

Incoming: Consider the compound `NCCCNc1nc2ccccc2c2c(=O)c3cc(F)cc(Cl)c3sc12` and give its measured growth.
Outgoing: 89.4% (inactive)

Incoming: Consider the compound `COc1ccc(CN2c3ccccc3Sc3ccccc32)c(F)c1` and give its measured growth.
Outgoing: 40.9% (inactive)

* * *

Measured growth values are reported for all entries that follow.
- Tested on: MCF7 breast
- assay notes: NCI-60 one-dose screen, 48 h (100 = growth as untreated, 0 = no growth, -100 = all killed)
- measurement conditions: 10 µM unless noted
- Experimental: Growth inhibition of the MCF7 human tumor cell line is measured as a screen for anti-cancer activity. Cells are grown in 96 well plates and exposed to the test compound for 48 hours. Compounds are tested at a single concentration, which is 10^-5 M for most compounds. The reported endpoint is percent growth (GI% or GIPRCNT), where numbers from 0 - 100% represent growth inhibition, and numbers from -100% - 0 represent cell death. For example, a value of 40 represents 60% growth inhibition. […]
About 83,000 compounds went through this panel and 20% of them were active in at least one assay; those are over-represented in the sample as a whole.
Report as a plain number; the unit % is understood.

O=C(Cc1ccc2c(c1)OCCO2)Nc1nc2ccc(F)cc2s1 = 92.2
COc1ccc2sc3c(NCCO)nc4ccccc4c3c(=O)c2c1 = 47

Next item in the queue.
Incoming: Consider the compound `Cc1ccc(-c2nc3c(c(-c4ccccc4)nn3-c3ccccc3)c(-c3ccc(O)cc3)c2C#N)cc1` and give its measured growth.
Outgoing: 26.4

* * *

- System: IGROV1 ovarian
- assay notes: NCI-60 one-dose screen, 48 h (100 = growth as untreated, 0 = no growth, -100 = all killed)
- measurement conditions: 10 µM unless noted
- Protocol: Growth inhibition of the IGROV1 human tumor cell line is measured as a screen for anti-cancer activity. Cells are grown in 96 well plates and exposed to the test compound for 48 hours. Compounds are tested at a single concentration, which is 10^-5 M for most compounds. The reported endpoint is percent growth (GI% or GIPRCNT), where numbers from 0 - 100% represent growth inhibition, and numbers from -100% - 0 represent cell death. For example, a value of 40 represents 60% growth inhibition. […]
About 83,000 compounds went through this panel and 20% of them were active in at least one assay; those are over-represented in the sample as a whole. Active and inactive are the calls of the source. How the source made its calls: active means growth percent below 10; inactive means the rest.
Measured growth values are reported for all entries that follow.

Sample answers from the record:
O=c1c2cccc(Cl)c2sc2c(NCCCNCCO)nc3ccccc3c12 = 15.3% (inactive)
C[C@]12CC[C@@H]3c4cc(OC(F)F)c(OS(N)(=O)=O)cc4CC[C@H]3[C@@H]1CC[C@@H]2O = 34.5% (inactive)
COc1cccc(-c2nc(-c3ccc(NS(=O)(=O)c4ccccc4)cc3)[nH]c2-c2ccnc(Br)c2)c1 = 44.6% (inactive)

Next item in the queue.
Incoming: Reported growth for IGROV1 ovarian, given `CCS(=O)(=O)c1ncnc2nc[nH]c12` ?
Outgoing: 109% (inactive)

* * *

- System: A498 renal
- assay notes: NCI-60 one-dose screen, 48 h
- measurement conditions: 10 µM unless noted
- Description: Growth inhibition of the A498 human tumor cell line is measured as a screen for anti-cancer activity. Cells are grown in 96 well plates and exposed to the test compound for 48 hours. Compounds are tested at a single concentration, which is 10^-5 M for most compounds. The reported endpoint is percent growth (GI% or GIPRCNT), where numbers from 0 - 100% represent growth inhibition, and numbers from -100% - 0 represent cell death. For example, a value of 40 represents 60% growth inhibition. […]
The panel holds about 83,000 compounds, 20% with a hit somewhere; the sample as a whole holds those more often. Activity calls are given as the source filed them. The calls were made as follows: active = growth percent below 10; inactive = the rest.
Valid outcomes are listed here; reply with one: active, inactive

Please review the entries below; each comes with its answer.
Cn1cc(-c2ccc3cc(-c4ccc(CC(=O)Nc5cc(C(C)(C)C)nn5C)cc4)cnc3c2)cn1 = active
COc1ccc(OC)c(/C=C2\Oc3cc(OCCN4CCC(Cc5ccccc5)CC4)ccc3C2=O)c1 = inactive

Incoming: Write down the call the test reported for this compound. Item: `c1ccc2cc(C[n+]3ccn(CCCCCCn4cc[n+](Cc5ccc6ccccc6c5)c4)c3)ccc2c1`
Outgoing: inactive

Incoming: Write down the call the test reported for this compound. Item: `COc1cc(/C=C/c2c(C(C)=O)c(C)nc3ccccc23)cc(OC)c1OC`
Outgoing: active

Incoming: Write down the call the test reported for this compound. Item: `NS(=O)(=O)c1ccc(N=Nc2ccc(-c3nn4cc(-c5ccccc5)nc4s3)cc2)cc1`
Outgoing: inactive

Incoming: Write down the call the test reported for this compound. Item: `COc1cc(/C=C2\C(=O)Nc3ccc(Br)cc32)cc(OC)c1OC`
Outgoing: inactive

Incoming: Write down the call the test reported for this compound. Item: `c1cc(NCCc2ccncc2)nc(-n2cnc3ccccc32)c1`
Outgoing: inactive

Incoming: Write down the call the test reported for this compound. Item: `CC1=C(C)C(=O)C(Nc2cccc(C(=O)OC(C)(C)C)c2)=C(Br)C1=O`
Outgoing: inactive

Incoming: Write down the call the test reported for this compound. Item: `Cc1nc2cnc(N)c(C#Cc3cncc(C(=O)Nc4ccc(CN5CCN(C)CC5)c(C(F)(F)F)c4)c3)c2nc1C`
Outgoing: active

Incoming: Write down the call the test reported for this compound. Item: `Cc1cccc2c1S/C(=C/c1ccc([N+](=O)[O-])cc1)C2=O`
Outgoing: inactive

* * *

- System: CAKI-1 renal
- assay notes: NCI-60 one-dose screen, 48 h (100 = growth as untreated, 0 = no growth, -100 = all killed)
- measurement conditions: 10 µM unless noted
This is part of a sample that, as a whole, favours compounds with a hit. Of some 83,000 tested, about 20% had one in any assay.
endpoint name: growth (%)
Report as a plain number; the unit % is understood.

CN(C(=O)NCc1cccc(F)c1Cl)[C@H](COC(=O)Nc1cc2ccccc2cn1)CC(O)CO (stereo not given in full) = 25.8

Incoming: Consider the compound `CCOC(=O)CCN(C(=O)Nc1ccccc1)C1CCCCC1` and give its measured growth.
Outgoing: 110

Incoming: Consider the compound CN(C)CCN1CCN(c2ncccc2C2Nc3ccccc3-n3cccc32)CC1 (stereo not given) and give its measured growth.
Outgoing: 85.4

Incoming: Consider the compound `COc1cc(CCC[P+](c2ccccc2)(c2ccccc2)c2ccccc2)c(OC)c2c1OCO2` and give its measured growth.
Outgoing: 75.8

Incoming: Consider the compound `CCOC(=O)c1cn2ncnc(Oc3ccc(NC(=O)NCCN4CCN(C)CC4)c(Cl)c3)c2c1C` and give its measured growth.
Outgoing: 76.3

Incoming: Consider the compound `CCc1ccc(Oc2c(-c3ccc(OCCc4cccc(C(F)(F)F)c4)cc3O)n[nH]c2C(F)(F)F)cc1` and give its measured growth.
Outgoing: 63.3

Incoming: Consider the compound `COc1cccc(-c2nn(-c3ccccc3)cc2-c2ccnc(N3CCOCC3)c2)c1` and give its measured growth.
Outgoing: 81.4

Incoming: Consider the compound `Cc1ccc(-c2nc(N3CCN(C(=O)Nc4ccc(Cl)c(C(F)(F)F)c4)CC3)c3ccccc3n2)cc1` and give its measured growth.
Outgoing: 53.6

Incoming: Consider the compound `O=C(S)CNC(=O)c1ccccc1` and give its measured growth.
Outgoing: 90.7

Incoming: Consider the compound `O=C(O)c1cn(C2CC2)c2cc(N3CCN(C(=O)Nc4nc(-c5ccc(Cl)cc5)cs4)CC3)c(F)cc2c1=O` and give its measured growth.
Outgoing: 17.1
